Test system: OVCAR-8
protocolDescription: NCI tumour cell line growth inhibition, 48 h
Active and inactive are the calls of the source. Cut-off read from the data, not from the text of the source: active = GI50 up to about 1.1 µM and inactive = higher.
Return exactly one item of yes (1) (active), no (0) (inactive)

IN: Assay result, entry CCOC(=O)N/N=C(\Cc1ccccc1)OCC — outcome?
OUT: no (0)

IN: Assay result, entry CCOC(=O)C(=[N+]=[N-])C(=O)CSC#N — outcome?
OUT: no (0)

IN: Assay result, entry COc1ccc(OC)c(C2CCc3nc4nc(N)nc(N)c4cc3C2)c1 (configuration not stated) — outcome?
OUT: no (0)

IN: Assay result, entry CO[C@H]1C=CO[C@@]2(C)Oc3c(C)c(O)c4c(O)c(c(CN5CCN(C)CC5)c(O)c4c3C2=O)NC(=O)/C(C)=C\C=C[C@H](C)[C@H](O)C(C)[C@@H](O)C(C)[C@H](OC(C)=O)[C@@H]1C (some centres not stated) — outcome?
OUT: no (0)

IN: Assay result, entry COc1ccc(S(=O)(=O)N/N=C/CN2C(=O)c3ccccc3C2=O)cc1OC — outcome?
OUT: no (0)

IN: Assay result, entry CCCCNC(=NC#N)NCCCC — outcome?
OUT: no (0)

IN: Assay result, entry NC1N=Nc2ccccc21 (configuration not stated) — outcome?
OUT: no (0)

IN: Assay result, entry O=c1ccc2ccccc2c2ccccc12 — outcome?
OUT: no (0)

IN: Assay result, entry Cc1nc(-c2cc3c(ccc4ccccc43)oc2=O)cc2c1c(=O)oc1ccc3ccccc3c12 — outcome?
OUT: no (0)

IN: Assay result, entry CCN(C(=O)N[C@@H](C)C(=O)N[C@@H](Cc1ccccc1)C(=O)OC)c1ccccc1 — outcome?
OUT: no (0)

IN: Assay result, entry O=C1C=CC[C@H](/C=C/C[C@@H](O)C[C@H](O)/C=C/c2ccccc2)O1 — outcome?
OUT: no (0)

IN: Assay result, entry O=C1c2ccccc2-c2nnc(-c3ccc(Cl)cc3)cc21 — outcome?
OUT: no (0)

IN: Assay result, entry CSc1nc2c(ncn2C2OC(CO)C(O)C(O)C2O)c(=O)n1C (configuration not stated) — outcome?
OUT: no (0)

IN: Assay result, entry Cc1c(N)nc(C2CC(=O)N2CC(N)C(N)=O)nc1C(=O)NC(C(=O)NC(C)C(O)C(C)C(=O)NC(C(=O)NCCc1nc(-c2nc(C(=O)NCCNCC(C)O)cs2)cs1)C(C)O)C(OC1OC(CO)C(O)C(O)C1OC1OC(CO)C(O)C(OC(N)=O)C1O)c1c[nH]cn1 (configuration not stated) — outcome?
OUT: no (0)

IN: Assay result, entry C=C1CC2CCCC12C=O (configuration not stated) — outcome?
OUT: no (0)

IN: Assay result, entry CN1CCCC2[C@@H]3CCC4c5nonc5CC[C@]4(C)C3CC[C@@]21C (some centres not stated) — outcome?
OUT: no (0)

IN: Assay result, entry C=CC[C@H]1O[Si](C(C)(C)C)(C(C)(C)C)[C@H](C)[C@H]1C — outcome?
OUT: no (0)

IN: Assay result, entry Oc1ccc(N=C2CCC(=C(c3ccccc3)c3ccc(Nc4ccc(O)cc4)cc3)CC2)cc1 — outcome?
OUT: no (0)

IN: Assay result, entry C[Si](C)(C)c1ccc(CC2(Cc3ccc([Si](C)(C)C)cc3)CCNC2)cc1 — outcome?
OUT: no (0)

IN: Assay result, entry Cc1cccc(/C=N/C23CC4CC(CC(C4)C2)C3)c1 — outcome?
OUT: no (0)

IN: Assay result, entry N#CCc1nc(Cc2ccccc2)n[nH]1 — outcome?
OUT: no (0)

IN: Assay result, entry C#CCNC(CS)C(=O)O (configuration not stated) — outcome?
OUT: no (0)

IN: Assay result, entry O=c1nc2n(c3nsnc13)CCO2 — outcome?
OUT: no (0)

IN: Assay result, entry Nc1nc(N)c(-c2ccccc2)c(C(=O)Nc2ccc(Cl)c(Cl)c2)n1 — outcome?
OUT: no (0)

IN: Assay result, entry Cc1ccc(/C=C2\CN(C)CC3C2=NC(=S)NC3c2ccc(C)cc2)cc1 (configuration not stated) — outcome?
OUT: no (0)

IN: Assay result, entry c1csc(-c2ccsc2-c2ccsc2)c1 — outcome?
OUT: no (0)

IN: Assay result, entry CC(C)c1c(O)ccc2c1CCC1C(C)(C)CCCC21C (configuration not stated) — outcome?
OUT: no (0)

IN: Assay result, entry Cc1ccc([N+](=O)[O-])cc1S(=O)(=O)Nc1ccc(C2=NOC(c3ccccc3)C2)cc1 (configuration not stated) — outcome?
OUT: no (0)

IN: Assay result, entry CC1(c2nc3cc(Cl)c(Cl)cc3[nH]2)CCC(CO)C(C)(C)O1 (configuration not stated) — outcome?
OUT: no (0)

IN: Assay result, entry CC(=O)OCC1OC(N2C(C)=C(C(C)=O)C(c3ccc(Cl)cc3)C(C#N)=C2S)C(OC(C)=O)C(OC(C)=O)C1OC(C)=O (configuration not stated) — outcome?
OUT: no (0)

IN: Assay result, entry OC/C=C/[C@H](OCc1ccccc1)[C@H](/C=C/CO)OCc1ccccc1 — outcome?
OUT: no (0)

IN: Assay result, entry S=C(N1CCN(c2ccccc2)CC1)N1CCN(c2ccccc2)CC1 — outcome?
OUT: no (0)

IN: Assay result, entry C/C(=N\NC(=O)C(N)=O)c1c(O)cc(C)oc1=O — outcome?
OUT: no (0)

IN: Assay result, entry O=S(=O)(O)c1ccc(Nc2ccnc3ccccc23)cc1 — outcome?
OUT: no (0)

IN: Assay result, entry COC(=O)C1=NN2c3ccccc3CN([C@@H](C)c3ccccc3)C(=O)[C@H]2[C@@H]1C — outcome?
OUT: no (0)

IN: Assay result, entry CN(C)CCCNc1c2ccccc2nc2cccc([N+](=O)[O-])c12 — outcome?
OUT: yes (1)

IN: Assay result, entry COc1ccc2c(c1)C(=O)CC1c3cnccc3C(=O)N21 (configuration not stated) — outcome?
OUT: no (0)

IN: Assay result, entry C=C(Br)CN(C#N)CC(=C)Br — outcome?
OUT: no (0)

IN: Assay result, entry O=C1c2ccc3cc(CCl)cc(O)c3c2C(=O)c2cccc(O)c21 — outcome?
OUT: no (0)

IN: Assay result, entry CCC1=C(C[C@H]2NCCc3cc(OC)c(OC)cc32)C[C@H]2c3cc(OC)c(OC)cc3CCN2C1 — outcome?
OUT: yes (1)

IN: Assay result, entry O=C1c2ccccc2C(=O)c2c1oc1cc(O)c(Cl)cc21 — outcome?
OUT: no (0)

IN: Assay result, entry Cc1cccc(NC(=O)C(=O)Cc2nc3ccccc3nc2O)c1C — outcome?
OUT: no (0)

----------
Test system: T47D
protocolDescription: NCI tumour cell line growth inhibition, 48 h
The source made the active and inactive calls. Cut-off read from the data, not from the text of the source: active = GI50 up to about 1.1 µM and inactive = higher.
Answer each item with its documented GI50.

IN: For Cc1cccc(-c2cc(=S)c3cc(N4CCCC4)ccc3[nH]2)c1 , what is its reported GI50?
OUT: > 100 µM (inactive)

IN: For O=C1c2ccc3cc(CCl)cc(O)c3c2C(=O)c2cccc(O)c21 , what is its reported GI50?
OUT: 7.48 µM (inactive)

IN: For CCC(C)[C@@H](NC1=C(Cl)C(=O)c2c(O)ccc(O)c2C1=O)C(=O)OC (stereo not given in full) , what is its reported GI50?
OUT: > 10 µM (inactive)

IN: For Cn1c2ccccc2n2c(=O)c(-c3ccc(O)cc3)nnc12 , what is its reported GI50?
OUT: > 100 µM (inactive)

IN: For COc1ccc2c(c1)CC[C@@H]1[C@@H]2CC[C@]2(C)/C(=N/OCCN3CCCC3)CC[C@@H]12 , what is its reported GI50?
OUT: 3.21 µM (inactive)

----------
Tested on: HT-29
protocolDescription: NCI tumour cell line growth inhibition, 48 h
Active and inactive are the calls of the source. Rule as the data show it: active = GI50 up to about 1.1 µM and inactive = higher.
propertyLabel: GI50

IN: For C=C(O)c1ccccc1C#Cc1ccccc1C(=O)OC , what is its reported GI50?
OUT: > 10 µM (inactive)

IN: For Cc1cc(O)cc(O)c1/N=N/c1ccc([N+](=O)[O-])cc1 , what is its reported GI50?
OUT: 29.3 µM (inactive)

IN: For CCN(CC)c1ccc(/C=C/c2ccnc3ccccc23)cc1 , what is its reported GI50?
OUT: > 100 µM (inactive)

IN: For CCC/C=C/c1cc2c(cc1O)CC[C@@H]1[C@@H]2CC[C@]2(C)[C@@H](O)CC[C@@H]12 , what is its reported GI50?
OUT: 18.4 µM (inactive)

IN: For CCOC(=O)/C(Br)=C1/OC(=O)c2ccccc2-c2ccccc21.CCOC(=O)/C(Br)=C1\OC(=O)c2ccccc2-c2ccccc21 , what is its reported GI50?
OUT: 11.3 µM (inactive)

IN: For CCN(C(=O)N[C@@H](C)C(=O)N[C@@H](Cc1ccccc1)C(=O)OC)c1ccccc1 , what is its reported GI50?
OUT: > 100 µM (inactive)

IN: For CCCC1CCC(=C2C(=O)CCC2=O)O1 (centres undefined) , what is its reported GI50?
OUT: > 100 µM (inactive)

IN: For O=c1nc2n(c3nsnc13)CCO2 , what is its reported GI50?
OUT: > 100 µM (inactive)

IN: For O=C1C(c2ccccc2)=C(c2ccccc2)C(c2ccc(-c3ccc(C4=C(c5ccccc5)C(=O)C(c5ccccc5)=C4c4ccccc4)cc3)cc2)=C1c1ccccc1 , what is its reported GI50?
OUT: > 100 µM (inactive)
